Where these numbers come from: PubChem BioAssay

Please go through the items and note down their composite z-score.
Test system: Fibrinogen (Alexa647-labelled)
Assay: fibrinogen binders on compound microarrays, profiling panel, artefact control for SMM control-protein annotation, biochemical, small-molecule microarray, 635/667 nm fluorescence (AID 1131);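 further: z-score merges 667 nm fluorescence with per-spot signal-to-noise over triplicate slides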
Conditions: fibrinogen-A647 binding fluorescence, higher = more signal

composite z-score reading for `COc1cccc([C@H]2Oc3ccc(OC)cc3C(=NOC[C@@H](O)COCc3ccco3)[C@@H]2O)c1` : -2.19

composite z-score reading for `COC(=O)[C@@H]1CC[C@@H](C)[C@H](c2ccc(Br)cc2)N1` : 0.689

composite z-score reading for `CC(=O)OC[C@H]1O[C@H](C#Cc2ccccc2)C=C[C@@H]1OC(C)=O` : 0.81

composite z-score reading for `CC(=O)Nc1ccc([C@@H]2N[C@H](C(=O)O)CC[C@H]2C)cc1` : 0.669

composite z-score reading for O=C1CCCC(C2=CCCCC2=O)C1 (stereo unspecified) : -0.67

composite z-score reading for `Cc1ccc(S(=O)(=O)N[C@@H]2COC(=O)[C@@H](C)COC(=O)CC=C[C@H]2C)cc1` : 0.466
